- Experiment: yeast display, Sf9 membrane polyspecificity reagent, FACS + sequencing; frameworks hold sequencing errors
Value type: polyreactivity (PSR sort gate)

query_sequence=QVQLVVSGGGLVQAGGSLRLSCSASGYTFWRYAMGWYRQAPGKERELVAAISQSGGRTYYADSVKGRYTISRDNAKNTVYLQMNSLKPEDTAVYFCATSYSQGDDYWGQGTQVTVSS measured="high polyreactivity"
query_sequence=QVQLVESGGGLVQAGGSLRLSCAASGFIFYRNTMGWYRQAPGKERELVAAISVSGGSTNYADSVKGRFTISRDNAKNTVYLQMNSLKPEDTAVYYCAARVRDSLVYGGWDDYWGQGTQVTVSS measured="high polyreactivity"
